# measurement_target: T1, human CD112R on Jurkat CD112R effector cells (human, UniProt Q6DKI7 1-326)
# T1 sequence (looked up): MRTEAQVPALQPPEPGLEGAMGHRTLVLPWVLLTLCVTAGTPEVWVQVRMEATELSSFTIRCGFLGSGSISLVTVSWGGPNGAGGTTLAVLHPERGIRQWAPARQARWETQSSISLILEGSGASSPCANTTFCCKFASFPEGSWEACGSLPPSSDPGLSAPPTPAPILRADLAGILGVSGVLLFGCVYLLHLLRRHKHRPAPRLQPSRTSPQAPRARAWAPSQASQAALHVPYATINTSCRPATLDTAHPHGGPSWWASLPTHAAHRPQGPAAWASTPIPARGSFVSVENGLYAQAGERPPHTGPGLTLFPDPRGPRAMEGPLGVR
# procedure_summary: cell-based or functional assay
assay_metric: EC50, CD112R/CD112 reporter (µg/mL)
Value expressed in µg/mL; do not type the unit.

Observe how each entry below is paired with its result.
Hu22 (antibody, IgG4, V domains shown, humanized IgG4) VH: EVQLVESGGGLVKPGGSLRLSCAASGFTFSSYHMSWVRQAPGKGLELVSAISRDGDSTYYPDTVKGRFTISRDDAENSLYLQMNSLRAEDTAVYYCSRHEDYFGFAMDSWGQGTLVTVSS VL: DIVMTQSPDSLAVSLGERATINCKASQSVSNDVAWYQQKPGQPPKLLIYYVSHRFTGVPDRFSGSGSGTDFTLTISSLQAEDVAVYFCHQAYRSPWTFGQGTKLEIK; 0.0267
Hu58 (antibody, IgG4, V domains shown, humanized IgG4) VH: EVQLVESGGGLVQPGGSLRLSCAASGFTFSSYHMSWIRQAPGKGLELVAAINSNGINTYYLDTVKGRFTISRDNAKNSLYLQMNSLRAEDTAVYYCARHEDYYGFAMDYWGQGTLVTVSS VL: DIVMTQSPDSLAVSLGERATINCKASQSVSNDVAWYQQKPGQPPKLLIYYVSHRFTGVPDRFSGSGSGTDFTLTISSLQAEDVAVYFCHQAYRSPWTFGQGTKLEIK; 0.0216
Hu25 (antibody, IgG4, V domains shown, humanized IgG4) VH: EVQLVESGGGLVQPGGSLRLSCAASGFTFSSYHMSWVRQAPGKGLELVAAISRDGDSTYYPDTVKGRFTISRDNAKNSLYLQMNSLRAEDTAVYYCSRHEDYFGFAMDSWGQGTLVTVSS VL: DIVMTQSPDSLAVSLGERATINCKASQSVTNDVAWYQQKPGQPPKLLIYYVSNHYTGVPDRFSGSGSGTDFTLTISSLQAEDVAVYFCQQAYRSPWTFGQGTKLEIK; 0.0412
Hu15 (antibody, IgG4, V domains shown, humanized IgG4) VH: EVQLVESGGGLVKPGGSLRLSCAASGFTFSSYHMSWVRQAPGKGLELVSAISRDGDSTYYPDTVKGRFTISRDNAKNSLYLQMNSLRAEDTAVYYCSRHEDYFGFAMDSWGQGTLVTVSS VL: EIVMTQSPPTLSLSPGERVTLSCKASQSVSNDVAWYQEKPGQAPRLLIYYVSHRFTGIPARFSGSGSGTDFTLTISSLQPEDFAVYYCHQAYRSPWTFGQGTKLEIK; 0.0237

Moving on to the next binder.
EC50, CD112R/CD112 reporter measured on Hu31 (antibody, IgG4, V domains shown, humanized IgG4) VH: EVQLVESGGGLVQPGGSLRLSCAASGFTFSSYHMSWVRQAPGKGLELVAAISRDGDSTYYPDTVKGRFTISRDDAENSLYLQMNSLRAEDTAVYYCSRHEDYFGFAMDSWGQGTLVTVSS VL: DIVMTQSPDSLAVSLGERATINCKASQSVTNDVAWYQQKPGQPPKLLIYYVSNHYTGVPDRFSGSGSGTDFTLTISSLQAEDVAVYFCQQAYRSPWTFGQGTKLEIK = 0.0507
